- assayText: Cell Viability - Hek293 (AID 427);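 also: cells exposed to compound for 40 hours at 37 °C before reading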
- studyConditions: qHTS
Records with an inconclusive call do not appear. The source made the active and inactive calls.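 The calls were made as follows: active = compounds whose dose-response curve shows a full or clear partial loss of cell viability, called from curve shape rather than a numeric limit; inconclusive = weak partial curves or an effect only at the top dose; inactive = no dose-dependent loss of viability.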
Possible outcomes: t (active), f (inactive)

{"columns": ["smilesNotation", "className"],
 "data": [
  ["Nc1ccc(S(N)(=O)=O)cc1", "f"],
  ["CS(=O)(=O)OCCCCOS(C)(=O)=O", "f"],
  ["CN(C)c1ccc2nc3ccc(=[N+](C)C)cc-3sc2c1", "t"],
  ["NS(=O)(=O)c1cc(C(=O)O)c(NCc2ccco2)cc1Cl", "f"],
  ["CCc1nc(N)nc(N)c1-c1ccc(Cl)cc1", "t"],
  ["Cc1ccc(C)c(OCCCC(C)(C)C(=O)O)c1", "f"]
]}
